From: patent US20130005696A1

# key: entry, value: pIC50
# Tested on: Hep3B human hepatic carcinoma cell line
# Measurement description: In vitro antitumor activity assay (SRB), Hep3B
# Assay type: cell-based
# Condition context: Homo sapiens, 72 h, Table 3
# Experimental: […] According to cell growth rate, tumor cells in the log phase of growth were seeded into 96-well culture plates at 100 μL per well, and allowed to attach for 24 hours, followed by addition of a test compound or positive control at 10 μL per well. […] Finally, Tris solution was added at 150 μL per well, and the absorbance (A) was measured at a wavelength of 515 nm using a microplate reader. The growth inhibition on tumor cell proliferation was calculated according to the following equation: […]
pIC50: −log10 of the molar value.
Observation type: pIC50

                                   molecule  observation_type  result
0  C[C@]12CC[C@H](O)C[C@H]1CC[C@@H]1[C@@H]2CC[C@]2(C)[C@@H](c3ccc(=O)oc3)CC[C@]12O [bufalin, reference compound]             pIC50  < 6.00
1  C[C@]12CC[C@H](OC(=O)NC3CCNCC3)C[C@H]1CC[C@@H]1[C@@H]2CC[C@]2(C)[C@@H](c3ccc(=O)oc3)CC[C@]12O             pIC50  < 6.00

====

# System: A-549 human non-small cell lung carcinoma cell line
# Measurement description: In vitro antitumor activity assay (SRB), A549
# Assay type: cell-based
# Condition context: Homo sapiens; A549, Table 2; read-out: IC50, inhibition of cell proliferation, A549
pIC50: −log10 of the molar value.
# key: entry, value: pIC50
Observation type: pIC50

>>> print(df.to_string())
                                   compound  result_number
0  CCN(CC)CCNC(=O)O[C@H]1CC[C@@]2(C)[C@H](CC[C@@H]3[C@@H]2CC[C@]2(C)[C@@H](c4ccc(=O)oc4)CC[C@]32O)C1           9.41
1  C[C@]12CC[C@H](O)C[C@H]1CC[C@@H]1[C@@H]2CC[C@]2(C)[C@@H](c3ccc(=O)oc3)CC[C@]12O [bufalin, reference compound]           8.19
2  CCNCCNC(=O)O[C@H]1CC[C@@]2(C)[C@H](CC[C@@H]3[C@@H]2CC[C@]2(C)[C@@H](c4ccc(=O)oc4)CC[C@]32O)C1           8.55
3  C[C@]12CC[C@H](OC(=O)N3CCCNCC3)C[C@H]1CC[C@@H]1[C@@H]2CC[C@]2(C)[C@@H](c3ccc(=O)oc3)CC[C@]12O           9.06
4  CN(C)CCN(C)C(=O)O[C@H]1CC[C@@]2(C)[C@H](CC[C@@H]3[C@@H]2CC[C@]2(C)[C@@H](c4ccc(=O)oc4)CC[C@]32O)C1           8.55
5  C[C@]12CC[C@H](OC(=O)NCC3CCCCN3)C[C@H]1CC[C@@H]1[C@@H]2CC[C@]2(C)[C@@H](c3ccc(=O)oc3)CC[C@]12O (stereo partly drawn)           9.24

====

# System: HT1080 human fibrosarcoma cell line
# Measurement description: In vitro antitumor activity assay (SRB), HT1080
# Format: cell-based
# Condition context: HT1080, 72 h, Table 3
pIC50: −log10 of the molar value.
Observation type: pIC50

In [3]: df
Out[3]:
                                   compound  observation_type  result_number
0  C[C@]12CC[C@H](OC(=O)NC3CCNCC3)C[C@H]1CC[C@@H]1[C@@H]2CC[C@]2(C)[C@@H](c3ccc(=O)oc3)CC[C@]12O.Cl [II1E-01•HCl]             pIC50           8.63
